Biological target: Human vitronectin receptor (αv β3) (Homo sapiens, UniProt P05106+P06756)
Construct: Human vitronectin receptor (αv β3) was purified from human placenta; from tissue; host or cells: human placenta
Sequence (P06756 31-889 limits assumed, one chain of several): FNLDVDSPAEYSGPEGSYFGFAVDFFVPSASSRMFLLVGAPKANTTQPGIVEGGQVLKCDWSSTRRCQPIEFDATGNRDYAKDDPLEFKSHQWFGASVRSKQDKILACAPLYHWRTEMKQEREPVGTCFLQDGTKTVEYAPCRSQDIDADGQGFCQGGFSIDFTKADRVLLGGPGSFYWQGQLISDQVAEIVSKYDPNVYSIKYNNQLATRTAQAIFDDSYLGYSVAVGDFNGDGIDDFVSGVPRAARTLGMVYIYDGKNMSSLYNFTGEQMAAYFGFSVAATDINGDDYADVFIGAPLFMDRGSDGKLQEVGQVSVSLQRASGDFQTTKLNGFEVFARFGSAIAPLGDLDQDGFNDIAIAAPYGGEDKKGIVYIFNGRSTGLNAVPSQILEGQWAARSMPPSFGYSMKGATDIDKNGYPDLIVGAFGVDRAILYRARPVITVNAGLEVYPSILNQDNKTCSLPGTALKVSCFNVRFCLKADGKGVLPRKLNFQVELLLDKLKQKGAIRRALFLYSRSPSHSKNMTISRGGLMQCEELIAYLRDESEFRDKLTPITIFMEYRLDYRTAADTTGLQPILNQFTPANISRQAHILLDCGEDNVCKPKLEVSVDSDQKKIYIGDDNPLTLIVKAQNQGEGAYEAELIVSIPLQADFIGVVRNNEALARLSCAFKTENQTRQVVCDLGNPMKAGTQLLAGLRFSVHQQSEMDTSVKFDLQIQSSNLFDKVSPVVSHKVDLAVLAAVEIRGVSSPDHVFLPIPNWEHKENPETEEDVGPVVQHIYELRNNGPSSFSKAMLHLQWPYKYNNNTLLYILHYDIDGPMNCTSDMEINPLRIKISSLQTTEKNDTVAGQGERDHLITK
Sequence (P06756 891-1048 limits assumed, one chain of several): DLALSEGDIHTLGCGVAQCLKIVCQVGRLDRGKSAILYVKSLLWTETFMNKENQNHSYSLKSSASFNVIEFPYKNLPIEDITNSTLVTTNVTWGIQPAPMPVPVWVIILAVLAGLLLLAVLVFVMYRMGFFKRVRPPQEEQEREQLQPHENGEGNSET
Assay: Vitronectin adhesion assay (solid phase receptor assay, αvβ3)
Type: binding
Conditions: inhibition of binding of biotinylated human vitronectin (1 nM) to purified receptor; Table I; read-out: AvB3 IC50
Method: The activity of the compounds of the present invention was tested in the following assays. Human vitronectin receptor (αv β3) was purified from human placenta as previously described [Pytela et al., Methods in Enzymology, 144:475-489 (1987)]. […] This assay was essentially the same as previously reported [Niiya et al., Blood, 70:475-483 (1987)]. […] The data were analyzed using a macro written for use with the EXCEL™ spreadsheet program. […]
pIC50: −log10 of the molar value. Structures can show the parent of a compound that is named as a salt.
Label Yes when pIC50 is at or above 7; anything below gets No.

{"columns": ["compound", "assigned.class"],
 "data": [
  ["O=C(O)/C=C/c1ccc2c(c1)CCCN2C(=O)c1cccc(NC2=NCCCN2)c1 [Example 78, trifluoroacetate salt]", "Yes"]
]}

Incoming: Textbook exercise: given the entry O=C(O)/C=C/c1ccc(NC(=O)c2cccc(NC3=NCCN3)c2)c(Cl)c1 [Example 23, trifluoroacetate salt] , state whether its pIC50 is greater than or equal to 7.
Outgoing: Yes

Incoming: Does pIC50 meet or surpass 7 for COC(=O)/C=C/c1ccc(NC(=O)c2cccc(NC3=NCCCN3)c2)cc1C(=O)O [Example 40C, trifluoroacetate salt] ?
Outgoing: No

Incoming: Please tell me: is the compound N=C(N)Nc1cccc(/C=C/C(=O)c2cccc(/C=C/C(=O)O)c2)c1 [Example 88, trifluoroacetate salt] at or over 7 in terms of pIC50?
Outgoing: Yes

Incoming: Textbook exercise: given the entry O=C(O)/C=C/c1ccc(NC(=O)c2cccc(NC3=NCCCS3)c2)cc1 [Example 56, trifluoroacetate salt] , state whether its pIC50 is greater than or equal to 7.
Outgoing: Yes

###

Molecular target: Human fibrinogen receptor (αIIb β3) (Homo sapiens, UniProt P05106+P08514)
Construct: Human fibrinogen receptor (αIIb β3) was purified from outdated platelets
Sequence (P08514 32-887 limits assumed): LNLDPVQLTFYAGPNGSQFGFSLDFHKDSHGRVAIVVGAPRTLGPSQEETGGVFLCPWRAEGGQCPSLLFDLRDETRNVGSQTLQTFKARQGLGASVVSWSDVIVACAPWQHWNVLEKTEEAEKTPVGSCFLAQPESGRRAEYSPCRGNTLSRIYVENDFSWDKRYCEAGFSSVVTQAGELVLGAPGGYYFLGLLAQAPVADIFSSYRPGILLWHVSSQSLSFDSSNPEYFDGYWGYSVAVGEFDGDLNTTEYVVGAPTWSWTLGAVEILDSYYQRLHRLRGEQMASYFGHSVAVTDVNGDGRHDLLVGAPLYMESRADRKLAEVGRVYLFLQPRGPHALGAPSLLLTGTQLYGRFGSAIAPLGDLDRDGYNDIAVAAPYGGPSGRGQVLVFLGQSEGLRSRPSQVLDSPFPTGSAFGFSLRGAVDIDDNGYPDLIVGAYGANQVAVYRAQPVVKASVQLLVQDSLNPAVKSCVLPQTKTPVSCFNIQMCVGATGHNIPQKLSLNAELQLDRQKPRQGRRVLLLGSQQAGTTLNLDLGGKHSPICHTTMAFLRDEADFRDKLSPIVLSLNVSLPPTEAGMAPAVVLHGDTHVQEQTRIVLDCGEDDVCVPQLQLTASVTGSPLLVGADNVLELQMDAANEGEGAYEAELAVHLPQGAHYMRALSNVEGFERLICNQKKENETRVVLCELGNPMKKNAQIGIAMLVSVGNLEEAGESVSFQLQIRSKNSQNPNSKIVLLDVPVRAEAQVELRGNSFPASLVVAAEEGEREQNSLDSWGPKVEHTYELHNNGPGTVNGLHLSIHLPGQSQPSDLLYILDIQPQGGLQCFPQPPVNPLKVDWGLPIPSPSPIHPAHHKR
Sequence (P08514 891-1039 limits assumed): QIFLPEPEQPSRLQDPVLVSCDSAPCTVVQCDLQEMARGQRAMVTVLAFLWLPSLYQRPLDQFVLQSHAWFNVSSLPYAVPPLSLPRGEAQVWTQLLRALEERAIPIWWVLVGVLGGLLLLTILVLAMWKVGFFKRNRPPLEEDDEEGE
Sequence (P05106 27-788): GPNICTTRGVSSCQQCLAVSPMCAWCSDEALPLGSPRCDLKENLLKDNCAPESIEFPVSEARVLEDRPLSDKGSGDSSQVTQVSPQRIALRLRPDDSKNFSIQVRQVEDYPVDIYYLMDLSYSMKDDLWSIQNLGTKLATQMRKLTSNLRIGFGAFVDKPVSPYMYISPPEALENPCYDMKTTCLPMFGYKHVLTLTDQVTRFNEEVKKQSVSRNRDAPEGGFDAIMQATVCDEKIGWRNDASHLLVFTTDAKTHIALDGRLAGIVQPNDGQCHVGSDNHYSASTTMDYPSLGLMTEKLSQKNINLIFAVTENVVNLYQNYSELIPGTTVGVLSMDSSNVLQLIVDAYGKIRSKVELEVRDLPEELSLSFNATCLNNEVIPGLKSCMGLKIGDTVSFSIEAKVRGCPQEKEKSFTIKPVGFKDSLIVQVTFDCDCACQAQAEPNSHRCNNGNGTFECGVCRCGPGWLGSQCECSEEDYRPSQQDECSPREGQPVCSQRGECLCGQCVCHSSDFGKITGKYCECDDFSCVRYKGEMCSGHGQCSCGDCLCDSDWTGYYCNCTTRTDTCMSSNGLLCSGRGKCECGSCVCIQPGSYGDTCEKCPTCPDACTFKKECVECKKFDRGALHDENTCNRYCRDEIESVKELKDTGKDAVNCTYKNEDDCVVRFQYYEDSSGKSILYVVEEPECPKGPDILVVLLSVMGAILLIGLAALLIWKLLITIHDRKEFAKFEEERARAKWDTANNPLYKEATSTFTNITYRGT
Experiment: Purified IIb/IIIa receptor assay (solid phase receptor assay)
Conditions: inhibition of binding of biotinylated human vitronectin (1 nM) to purified receptor; Table I
Counter-ions that a name gives are not always drawn.
parameter: log10 IC50 (log10 of the value in µM)
Parameter value (number): base-10 log of IC50 in µM.

Guide cases for log10 IC50, answers given:
{"columns": ["compound", "parameter", "recorded.number"],
 "data": [
  ["N=C(N)Nc1cccc(C(=O)Nc2ccc(/C=C/C(=O)O)cc2F)c1 [Example 11, trifluoroacetate salt]", "log10 IC50", -1.85],
  ["N=C(N)Nc1cccc(C(=O)Nc2ccc(/C=C/C(=O)O)c3ccccc23)c1 [Example 16, trifluoroacetate salt]", "log10 IC50", -1.60],
  ["N#Cc1cc(NC(=O)c2cccc(NC(=N)N)c2)ccc1/C=C/C(=O)O [Example 44, trifluoroacetate salt]", "log10 IC50", -1.44],
  ["Cc1cc(/C=C/C(=O)O)cc(C)c1NC(=O)c1cccc(NC(=N)N)c1 [Example 13, trifluoroacetate salt]", "log10 IC50", 0.33]
]}

Incoming: Item N=C(N)Nc1cccc(C(=O)COc2cccc(/C=C/C(=O)O)c2)c1 [Example 79, trifluoroacetate salt] with Human fibrinogen receptor (αIIb β3) (Homo sapiens, UniProt P05106+P08514) - log10 IC50?
Outgoing: -0.38

Incoming: Param readout= log10 IC50; system= Human fibrinogen receptor (αIIb β3) (Homo sapiens, UniProt P05106+P08514); entry= N=C(N)Nc1cccc(C(=O)CCc2cccc(/C=C/C(=O)O)c2)c1 [Example 91, trifluoroacetate salt hydrate] ; returns value.
Outgoing: 0.94

Incoming: Human fibrinogen receptor (αIIb β3) (Homo sapiens, UniProt P05106+P08514) / log10 IC50 / N=C(N)Nc1cccc(C(=O)Nc2ccc(/C=C/C(=O)O)c(C(F)(F)F)c2)c1 [Example 35, trifluoroacetate salt] : value?
Outgoing: -0.82

###

Molecular target: Human vitronectin receptor (αv β3) (Homo sapiens, UniProt P05106+P06756)
Construct: Human vitronectin receptor (αv β3) was purified from human placenta; from tissue; host or cells: human placenta
Test: Vitronectin adhesion assay (solid phase receptor assay, αvβ3)
Assay type: binding
Conditions: inhibition of binding of biotinylated human vitronectin (1 nM) to purified receptor; Table I; read-out: AvB3 IC50
Structures can show the parent of a compound that is named as a salt.
parameter: pIC50
Please keep in mind that pIC50 is minus log10 of the molar concentration; only the number is needed.

These solved cases illustrate the format of a correct answer.
{"columns": ["molecule", "pIC50"],
 "data": [
  ["N=C(N)Nc1cccc(C(=O)Nc2ccc(/C=C/C(=O)O)cc2)c1 [Example 4, trifluoroacetate salt]", 7.97],
  ["O=C(O)/C=C/c1cccc(CNC(=O)c2cccc(NC(=O)NCc3ccccc3)c2)c1 [Example 64, trifluoroacetate salt]", 5.66],
  ["CC/C(=C\\C(=O)O)c1cccc(CNC(=O)c2cccc(NC(=N)N)c2)c1 [Example 74, trifluoroacetate salt hydrate]", 5.57],
  ["N=C(N)Nc1cccc(C(=O)Nc2ccc(/C=C/C(=O)O)cc2Cl)c1 [Example 9, trifluoroacetate salt]", 8.46],
  ["Cc1cc(/C=C/C(=O)O)cc(C)c1NC(=O)c1cccc(NC2=NCCCN2)c1 [Example 24, bis(trifluoroacetate salt)]", 8.31]
]}

Incoming: Data request, read-out pIC50, for CCc1cc(/C=C/C(=O)O)ccc1NC(=O)c1cccc(NC(=N)N)c1 [Example 7, trifluoroacetate salt]
Outgoing: 8.53

Incoming: Quick one: pIC50 of Cc1cc(/C=C/C(=O)O)cc(C)c1NC(=O)c1cccc(NC2=NCCCS2)c1 [Example 57, trifluoroacetate salt] ?
Outgoing: 7.59

###

Each entry below lists one item and its recorded IC50 value.
Biological target: Human vitronectin receptor (αv β3) (Homo sapiens, UniProt P05106+P06756)
Construct: Human vitronectin receptor (αv β3) was purified from human placenta; from tissue; host or cells: human placenta
Test: Vitronectin adhesion assay (solid phase receptor assay, αvβ3)
Type: binding
Details: inhibition of binding of biotinylated human vitronectin (1 nM) to purified receptor; Table I; read-out: AvB3 IC50
Counter-ions that a name gives are not always drawn.
The reply should be a number in nM, with the unit left off.

{"columns": ["compound", "unit.abbreviation", "IC50"],
 "data": [
  ["O=C(O)/C=C/c1ccc(/C=C/c2cccc(NC3=NCCCS3)c2)cc1 [Example 100, trifluoroacetate salt]", "nM", 30.6],
  ["O=C(O)/C=C/c1cccc(OCC(=O)c2cccc(NC3=NCCN3)c2)c1 [Example 80, trifluoroacetate salt]", "nM", 1.02],
  ["N=C(N)Nc1cccc(C(=O)Nc2ccc(/C=C/C(=O)O)c3ccccc23)c1 [Example 16, trifluoroacetate salt]", "nM", 50.9],
  ["N=C(N)Nc1cccc(C(=O)Nc2ccc(/C=C/C(=O)O)cc2C(F)(F)F)c1 [Example 12, trifluoroacetate salt]", "nM", 155],
  ["N=C(N)Nc1cccc(C(=O)Nc2ccc(/C=C/C(=O)O)c(C(F)(F)F)c2)c1 [Example 35, trifluoroacetate salt]", "nM", 122]
]}

Incoming: I'd like to know its IC50. The compound in question is O=C(O)/C=C/c1cccc(CNC(=O)c2cccc(NC3=NCCN3)c2)c1 [Example 67, monohydrochloride hydrate]
Outgoing: 2.27

Incoming: Name the reported IC50 value associated with the compound COc1cc(NC(=O)c2cccc(NC3=NCCCN3)c2)ccc1/C=C/C(=O)O [Example 50, trifluoroacetate salt]
Outgoing: 0.43

###

# reported log10 IC50; entries follow
Biological target: Human fibrinogen receptor (αIIb β3) (Homo sapiens, UniProt P05106+P08514)
Construct: Human fibrinogen receptor (αIIb β3) was purified from outdated platelets
Assay: Purified IIb/IIIa receptor assay (solid phase receptor assay)
Details: inhibition of binding of biotinylated human vitronectin (1 nM) to purified receptor; Table I
Counter-ions that a name gives are not always drawn.
The base-10 logarithm of IC50, taken with IC50 in nM, is what appears here.

{"columns": ["molecule", "log10 IC50"],
 "data": [
  ["COC(=O)c1cc(NC(=O)c2cccc(NC3=NCCCN3)c2)ccc1/C=C/C(=O)O [Example 40B, trifluoroacetate salt]", 2.91],
  ["O=C(O)/C=C/c1ccc(/C=C/c2cccc(NC3=NCCCS3)c2)cc1 [Example 100, trifluoroacetate salt]", 2.82],
  ["Cc1cc(/C=C/C(=O)O)cc(Cl)c1NC(=O)c1cccc(NC(=N)N)c1 [Example 15, trifluoroacetate salt]", 3.42]
]}

Incoming: Record request: log10 IC50 value, item COc1cc(NC(=O)c2cccc(NC3=NCCCN3)c2)ccc1/C=C/C(=O)O [Example 50, trifluoroacetate salt]
Outgoing: 2.89

Incoming: Requested field: log10 IC50. Item: COc1ccc(/C=C/C(=O)O)cc1C(=O)/C=C/c1cccc(NC(=N)N)c1 [Example 86, trifluoroacetate salt]
Outgoing: 2.75

Incoming: Data request, read-out log10 IC50, for Cc1cc(/C=C/C(=O)O)ccc1NC(=O)c1cccc(NC(=N)N)c1 [Example 5, trifluoroacetate salt]
Outgoing: 0.98

Incoming: Query (molecule): N=C(N)Nc1cccc(C(=O)Nc2ccc(/C=C/C(=O)O)cc2Cl)c1 [Example 9, trifluoroacetate salt] ; field requested: log10 IC50
Outgoing: 1.04
